- System: SK-OV-3 ovarian
- assay-notes: NCI-60 one-dose screen, 48 h
- experimental-parameters: 10 µM
- Procedure: Growth inhibition of the SK-OV-3 human tumor cell line is measured as a screen for anti-cancer activity. Cells are grown in 96 well plates and exposed to the test compound for 48 hours. Compounds are tested at a single concentration, which is 10^-5 M for most compounds. The reported endpoint is percent growth (GI% or GIPRCNT), where numbers from 0 - 100% represent growth inhibition, and numbers from -100% - 0 represent cell death. For example, a value of 40 represents 60% growth inhibition. […]
This is part of a sample that, as a whole, favours compounds with a hit. Of some 83,000 tested, about 20% had one in any assay. The source made the active and inactive calls. Rule for the calls: active = growth percent below 10; inactive = the rest.
Labels: true (1) = active, false (0) = inactive

compound_structure=Brc1ccc(/C=N/Nc2ncnc3sc4c(c23)CCN(Cc2ccccc2)C4)cc1 class_name="false (0)"
compound_structure=O=C(NO)c1ccc(CN2CCN(c3nc(-c4ccccc4)c4ccccc4n3)CC2)cc1 class_name="true (1)"
compound_structure=CCOC(=O)c1sc(N/N=C(\C)c2ccc3c(c2)Nc2ccccc2S3)nc1C class_name="false (0)"
compound_structure=CCN1CCN(c2ccc(NC(=O)Nc3ccc(-c4cc(C(=O)NC)c5ncccc5n4)cc3)cc2C(F)(F)F)CC1 class_name="true (1)"
compound_structure=O=c1[nH]c2ccccc2cc1CSc1ccc(Nc2nccc(-c3ccc(Cl)cc3)n2)cc1 class_name="true (1)"
compound_structure=CC(=O)Nc1ccc(-c2cn(-c3cccc(C(=O)Nc4cccc(OC(F)(F)F)c4)c3)nn2)cn1 class_name="false (0)"
compound_structure=O=c1cc(-c2ccccc2)oc2cc(OCCCNCc3ccccc3)cc(O)c12 class_name="false (0)"
compound_structure=Cc1ccc(-c2ccc(SCC(=O)Nc3ccc(Cl)c(C(F)(F)F)c3)nn2)cc1 class_name="false (0)"
compound_structure=O=C(Nc1ccc(OCc2ccccc2)cc1)Nc1ccc(Cl)c(C(F)(F)F)c1 class_name="true (1)"

###

- System: EKVX NSCLC
- assay-notes: NCI-60 one-dose screen, 48 h (100 = growth as untreated, 0 = no growth, -100 = all killed)
- experimental-parameters: 10 µM
This is part of a sample that, as a whole, favours compounds with a hit. Of some 83,000 tested, about 20% had one in any assay.
Recorded growth, one value per entry.
property-measured: growth (%)

molecule=O=C(CS(=O)(=O)c1oc(-c2ccc(Cl)cc2)nc1S(=O)(=O)c1ccc(Cl)cc1)N1CCOCC1 property_measured=growth result_units=% reported_result=83.5
molecule=Cc1cc(C(F)(F)F)ccc1C(=O)Nc1sc2c(c1C#N)CCC(=O)C2 property_measured=growth result_units=% reported_result=-25.5
molecule=O=C(NO)c1ccc(Cn2ccc3c(Nc4ccccc4)ncnc32)cc1 property_measured=growth result_units=% reported_result=23.6
molecule=O=C(NO)c1ccc(CNC(=O)[C@H]2Cc3c([nH]c4ccccc34)[C@H](c3ccccc3)N2)cc1 property_measured=growth result_units=% reported_result=44.8
molecule=COC[C@@H](CC(C)C)N=C1NC(=O)/C(=C/c2ccc3ncoc3c2)N1 property_measured=growth result_units=% reported_result=18
molecule=COc1cc2c3c(n(CCCNCCO)c(=O)c2cc1OC)-c1nc2c(cc1C3=O)OCO2 property_measured=growth result_units=% reported_result=79
molecule=Cn1cc(-c2cc(N)n3nc(-c4c[nH]c5ccc(Br)cc45)cc3n2)c2cccnc21 property_measured=growth result_units=% reported_result=-86.7
molecule=NS(=O)(=O)c1ccc(NC(=O)CSc2ccc(-c3ccc(Cl)cc3)nn2)c(Br)c1 property_measured=growth result_units=% reported_result=47.4
molecule="C=C1CCC2C3(C)COC(c4ccccc4F)OC3CCC2(C)C1C/C=C1/C(=O)OCC1O (centres undefined)" property_measured=growth result_units=% reported_result=-51.6

The reported numbers originate from PubChem BioAssay (NCI).
